system: SNB-19; experiment: NCI tumour cell line growth inhibition, 48 h
The source made the active and inactive calls. Rule as the data show it: active = GI50 up to about 1.1 µM and inactive = higher.

>  <compound.structure>
O=C1C(c2c(O)[nH]c3ccc(I)cc23)=Nc2ccccc21

>  <GI50>
4.95 µM (inactive)

$$$$
>  <compound.structure>
NNC(=S)N/N=C/C(=C/Nc1ccccc1)[N+](=O)[O-]

>  <GI50>
> 100 µM (inactive)

$$$$
>  <compound.structure>
Cc1ccc2c(c1)nc1n2C(N)=Nc2ccccc2S1

>  <GI50>
35.8 µM (inactive)

$$$$

====

test system: OVCAR-3; experiment: NCI tumour cell line growth inhibition, 48 h
Calls of active or inactive are those of the source. Rule as the data show it: active = GI50 up to about 1.1 µM and inactive = higher. Where a SMILES comes first, the peptide text is derived from it. The star is where a group is joined. Boc = CC(C)(C)OC(=O)*
Classes used: Y = active, N = inactive

>  <compound>
Nn1c(S)nnc1CCCCCCCCc1nnc(S)n1N

>  <group>
N

$$$$
>  <compound>
Cc1cc(C)c2c(O)cc(-c3cccc(F)c3)nc2n1

>  <group>
Y

$$$$
>  <compound>
Cc1ccc(S(=O)(=O)N/N=C/C(Br)=C(/Br)C(=O)O)cc1

>  <group>
N

$$$$
>  <compound>
CC(=O)N1CC(=O)NC1=S

>  <group>
N

$$$$
>  <compound>
CCOC(=O)CC(=O)Nc1cccc2nc[nH]c12

>  <group>
N

$$$$
>  <compound>
COc1ccc2occ(CCC(=O)O)c2c1

>  <group>
N

$$$$
>  <compound>
Clc1ncnc2c1nc(C#Cc1ccccc1)n2Cc1ccccc1

>  <group>
N

$$$$
>  <compound>
CC(=O)c1c(=O)n(-c2ccc(C)cc2)c(O)c2c(N)n[nH]c12

>  <group>
N

$$$$
>  <compound>
O=c1c2cc(Br)ccc2nc(-c2ccccc2)n1NCC1(O)OCC(O)C(O)C1O (stereo not given)

>  <group>
N

$$$$
>  <compound>
COc1ccc(O)c(C#N)c1C#N.COc1ccc(OC)c(C#N)c1C#N

>  <group>
N

$$$$
>  <compound>
Cn1c(=O)c2[nH]c(C3CC(=O)CC(c4nc5c([nH]4)c(=O)n(C)c(=O)n5C)N3)nc2n(C)c1=O (stereo not given)

>  <group>
N

$$$$
>  <compound>
O=C(CCc1cc(-c2ccc(F)cc2)n[nH]1)N(Cc1ccccc1)Cc1ccccc1

>  <group>
N

$$$$
>  <compound>
O=[N+]([O-])c1ccc(Cc2nc3cc4ccccc4cc3[nH]2)cc1C(F)(F)F

>  <group>
N

$$$$
>  <compound>
CNC(=O)OCc1c(CO)nc(SC)n1C

>  <group>
N

$$$$
>  <compound>
COC(=O)C(C)NC(=O)C(CCSC)NC(=O)C(Cc1ccccc1)NC(=O)OC(C)(C)C (stereo not drawn) (Boc-Phe-Met-Ala-OMe; configuration not given here)

>  <group>
N

$$$$
>  <compound>
O=C1/C(=C/c2cccc([N+](=O)[O-])c2)Cc2ccccc21

>  <group>
N

$$$$
>  <compound>
COC(=O)c1c2cccccc-2c(Cc2c3cccccc-3c(C(=O)OC)c2O)c1O

>  <group>
N

$$$$
>  <compound>
COc1cccc(N2C(=O)CS(=O)(=O)C2c2cccc(Oc3ccccc3)c2)c1 (stereo not given)

>  <group>
N

$$$$
>  <compound>
COc1ccc(-c2cc(-c3ccc(Nc4ccnc5cc(Cl)ccc45)cc3)[nH]c(=O)c2C#N)c2ccccc12

>  <group>
N

$$$$
>  <compound>
CC(C)CCC1(CCN)C(=O)NC(=O)NC1=O

>  <group>
N

$$$$
>  <compound>
O=C1OCC2C1C1c3ccccc3C(O)c3ccccc3C21 (stereo not given)

>  <group>
N

$$$$
>  <compound>
Nc1nc(Cl)cc(NCCCCCNc2cc(Cl)nc(N)n2)n1

>  <group>
N

$$$$
>  <compound>
CC1=CC(=O)N(n2c(Cc3ccccc3)n[nH]c2=O)C1=O

>  <group>
N

$$$$
>  <compound>
O=C(CC1(O)C(=O)Nc2c(Cl)cc(Cl)cc21)c1ccc2ccccc2c1 (stereo not given)

>  <group>
N

$$$$
>  <compound>
COC(=O)C1Cc2ccc(O)c(O)c2CN1 (stereo not given)

>  <group>
N

$$$$
>  <compound>
COc1cc2c(c(OC)c1)C(=O)C(=O)C(CC1(C)OCCCO1)=C2

>  <group>
N

$$$$
>  <compound>
CCCCC(=O)Nc1ccc2cc(C(=O)OC)c(Cl)nc2n1

>  <group>
N

$$$$
>  <compound>
O=C1OC(OC/C(Br)=C(\Br)COC2OC(=O)C(Cl)=C2Cl)C(Cl)=C1Cl (stereo not given)

>  <group>
N

$$$$
>  <compound>
COc1c(C)c2c(c3c1c(=O)c1ccccc1n3C)C=CC(C)(C)O2

>  <group>
N

$$$$
>  <compound>
Cc1ccc(-c2cc(-c3ccccc3)c(C#N)c(=O)n2C2OC(CO)C(O)C(O)C2O)cc1 (stereo not given)

>  <group>
N

$$$$
>  <compound>
COc1ccc(C2NC(=O)Nc3c2c(=O)oc2c3ccc3ccccc32)cc1 (stereo not given)

>  <group>
N

$$$$
>  <compound>
CCCCCCCCCCCCCP(=O)(O)O

>  <group>
N

$$$$
>  <compound>
N#CCCN(CCC#N)c1ccc(C(Sc2ccccc2)C(NC(=O)c2cc([N+](=O)[O-])ccc2Cl)C(=O)Sc2ccccc2)cc1 (stereo not given)

>  <group>
N

$$$$
>  <compound>
O=C1c2ccccc2C(=O)c2c(NCC3CO3)ccc(NCC3CO3)c21 (stereo not given)

>  <group>
N

$$$$
>  <compound>
COc1cc2c3cc1Oc1cc(ccc1O)C[C@@H]1c4c(cc(OC)c(O)c4Oc4ccc(cc4)C[C@@H]3N(C)CC2)CC[N+]1(C)C

>  <group>
N

$$$$
>  <compound>
O=C1CCC(CCc2nc3ccccc3[nH]2)(c2ccccc2)C(=O)N1 (stereo not given)

>  <group>
N

$$$$
>  <compound>
CN(C)C(=O)CC(C(=O)O)c1c[nH]c2ccccc12 (stereo not given)

>  <group>
N

$$$$
>  <compound>
O=C1C=CC(=O)C(CNc2ccc(C(=O)OCc3ccccc3)cc2)=C1

>  <group>
N

$$$$
>  <compound>
CC(=O)Oc1ccc(-c2c(OC(C)=O)c(OC(C)=O)c(-c3ccc(OC(C)=O)c(OC(C)=O)c3)c(OC(C)=O)c2OC(C)=O)cc1

>  <group>
N

$$$$
>  <compound>
CC(=O)OCc1ccc2oc(=O)c(C(=O)Oc3cccc(Cl)c3)cc2c1

>  <group>
N

$$$$
